Biological target: GC receptor
Test: cell-based or functional assay
Numbered stars: 1 amine (or outer) side, 2 acyl side, 3 side chain; on linkers, the order of the positions; unused ones are H or OH. Square brackets hold non-standard residues; d marks the D form. Side chains are listed from the residue outwards. Ends that are not written are not given here. * marks the point of attachment. OC17H32COOH = fatty diacid acyl group -OC17H32COOH on the linker; C20 diacid = O=C(O)CCCCCCCCCCCCCCCCCCC(=O)*; C18 diacid = O=C(O)CCCCCCCCCCCCCCCCC(=O)*; γGlu = O=C(O)[C@H](CCC(=O)[*:2])N[*:1]; Palmitoyl = CCCCCCCCCCCCCCCC(=O)*; AEEA = NCCOCCOCC(=O)O; Aib = CC(C)(N)C(=O)O
Assay Metric: EC50 of GC receptor mediated cAMP production (nM)
State the answer as a number, implicitly in nM.

Please review the following examples before continuing.
* H[Aib]QGTFTSDYSKYLDERKAK([AEEA-AEEA-γGlu-OC17H32COOH])EFIEWLEGGPSSG-NH2 (not fully specified; printed as HAibQGTFTSDYSKYLDERKAK**EFIEWLEGGPSSG-Amid) [Compound 66] | 0.058
* H[Aib]QGTFTSDYSKYLDEKRAK([γGlu-γGlu-Palmitoyl])EFIAWLEAGGPSSG-NH2 (not fully specified; printed as HAibQGTFTSDYSKYLDEKRAK*EFIAWLEAGGPSSG-Amid) [Compound 57] | 0.081
* H[Aib]QGTFTSDYSKYLEERKAK([AEEA-AEEA-γGlu-C20 diacid])EFIAWLEGGPSSG-NH2 (not fully specified; printed as HAibQGTFTSDYSKYLEERKAK***EFIAWLEGGPSSG-Amid) [Compound 68] | 0.314
* H[Aib]QGTFTSDYSKYLEERKAK([AEEA-AEEA-γGlu-C18 diacid])EFIAWLEAGGPSSG-NH2 (not fully specified; printed as HAibQGTFTSDYSKYLEERKAK**EFIAWLEAGGPSSG-Amid) [Compound 44] | 0.219
* H[Aib]QGTFTSDYSKYLDERKAK([γGlu-γGlu-Palmitoyl])EFVEWLEGGPSSG-NH2 (not fully specified; printed as HAibQGTFTSDYSKYLDERKAK*EFVEWLEGGPSSG-Amid) [Compound 69] | 0.261
* H[Aib]QGTFTSDYSKYLEERAAK([AEEA-AEEA-γGlu-C18 diacid])EFVEWLEGGPSSG-NH2 (not fully specified; printed as HAibQGTFTSDYSKYLEERAAK**EFVEWLEGGPSSG-Amid) [Compound 32] | 0.077
* HSQGTFTSDYSKYLDERAAK([AEEA-AEEA-γGlu-C18 diacid])EFIAWLEGGPSSG-NH2 (not fully specified; printed as HSQGTFTSDYSKYLDERAAK**EFIAWLEGGPSSG-Amid) [Compound 38] | 0.102
* H[Aib]QGTFTSDYSKYLEERKAK([γGlu-γGlu-Palmitoyl])EFVEWLEGGPSSG-NH2 (not fully specified; printed as HAibQGTFTSDYSKYLEERKAK*EFVEWLEGGPSSG-Amid) [Compound 62] | 0.156
* HXQGTFTSDKSKYLXERAAKEFIXWLEAGGPSSG (not fully specified; Lys 10 side chain -Ado-Ado-γE-OC17H32COOH; C-terminal amide) [Compound 79] | 0.025
* H[Aib]QGTFTSDYSKYLDERKAK([AEEA-AEEA-γGlu-C18 diacid])EFVEWLEAGGPSSG-NH2 (not fully specified; printed as HAibQGTFTSDYSKYLDERKAK**EFVEWLEAGGPSSG-Amid) [Compound 42] | 0.024

**Q:** Specify measured EC50 of GC receptor mediated cAMP production for H[Aib]QGTFTSDK([AEEA-AEEA-γGlu-C18 diacid])SKYLEERAAKEFIAWLEGGPSSG-NH2 (not fully specified; printed as HAibQGTFTSDK**SKYLEERAAKEFIAWLEGGPSSG-Amid) [Compound 6] .
**A:** 0.052

**Q:** Write down EC50 of GC receptor mediated cAMP production measured for item H[Aib]QGTFTSDK([γGlu-γGlu-Palmitoyl])SKYLEERAAKEFIAWLEGGPSSG-NH2 (not fully specified; printed as HAibQGTFTSDK*SKYLEERAAKEFIAWLEGGPSSG-Amid) [Compound 21]
**A:** 0.175

**Q:** For the binder H[Aib]QGTFTSDK([AEEA-AEEA-γGlu-C20 diacid])SKYLDERAAKEFVAWLEAGGPSSG-NH2 (not fully specified; printed as HAibQGTFTSDK***SKYLDERAAKEFVAWLEAGGPSSG-Amid) [Compound 13] , give its measured EC50 of GC receptor mediated cAMP production value.
**A:** 0.033

**Q:** Quickly give me recorded EC50 of GC receptor mediated cAMP production for H[Aib]QGTFTSDK([AEEA-AEEA-γGlu-C20 diacid])SKYLEERAAKEFIAWLEAGGPSSG-NH2 (not fully specified; printed as HAibQGTFTSDK***SKYLEERAAKEFIAWLEAGGPSSG-Amid) [Compound 35]
**A:** 0.036

**Q:** Determine its reported EC50 of GC receptor mediated cAMP production: HXQGTFTSDKSKYLXERAAKEFIXWLEAGGPSSG (not fully specified; Lys 10 side chain -Ado-Ado-γE-OC17H32COOH; C-terminal amide) [Compound 36]
**A:** 0.069
